Reported τ2 values follow for various compounds
Molecular target: Rba. sphaeroides reaction centre (QB site) (Cereibacter sphaeroides)
Construct: made in house; host or cells: Rba. sphaeroides strain DD13 carrying plasmid pvLMt (written pvLMtX)
Assay: Kinetics of charge recombination in photo-oxidised reaction centres in solution (absorbance at 865 nm)
Assay type: biochemical, Rhodobacter sphaeroides
Settings: 500 µM inhibitor, 13.2 µM reaction centres, 30 µM UQ0; ± standard error
Description: Analysis of the effects of herbicides or inhibitors on the kinetics of charge recombination was performed using a Cary60 spectrophotometer connected to an external 1 cm cuvette holder (Ocean Optics) via a fibre-optic coupler. […] A set of eight kinetic traces were recorded for each sample, averaged, and fitted using a single or double exponential function in Origin 8 (OriginLab). […]
Experimental Readout: τ2 (s)

| Smiles Text | Assayed Target | Unit Name | Measurement |
| --- | --- | --- | --- |
| COc1cc(CNC(=O)CCCC/C=C/C(C)C)ccc1O | Rba. sphaeroides reaction centre (QB site) (Cereibacter sphaeroides) | s | 1.19 |
| CC(C)N1C(=O)c2ccccc2NS1(=O)=O | Rba. sphaeroides reaction centre (QB site) (Cereibacter sphaeroides) | s | 1.09 |
| CN(C)C(=O)Nc1ccc(Cl)c(Cl)c1 | Rba. sphaeroides reaction centre (QB site) (Cereibacter sphaeroides) | s | 1.18 |
| N#Cc1cc(Br)c(O)c(Br)c1 | Rba. sphaeroides reaction centre (QB site) (Cereibacter sphaeroides) | s | 1.14 |
